Tested on: full length human vWF (SEQ ID NO 7)
Assay explanation: dot blot KD determination and extent of binding, full length human vWF;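 further: dot blot binding of aptamers to full length human vWF across a protein titration, incubated 30 minutes at room temperature in 1x DPBS with BSA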
Experimental context: Phase 4 and 5 modification; extent of aptamer binding at 100 nM full length human vWF
Oligonucleotides are written 5' to 3', each unit as a sugar letter and its base; * is a phosphorothioate linkage, no mark a phosphodiester; rarer units and linkages stand in square brackets, end groups in braces. Plain capitals give the bases only. [invdT] = inverted (3'-3') thymidine; d = 2'-deoxy (DNA); m = 2'-O-methyl
The threshold is inclusive: % binding @ 100 nM vWF of exactly 30% counts as true; values below receive false.

See these solved cases before continuing.
Substance: mCmGmUdGdCdAmGmUmGmCmCmUmUmUmGmGmCdCmG-s-TmGdCdGdGTmGmCdCmUdCdCmGmUmCmAmCmG-3T (mCmGmUdGdCdAmGmUmGmCmCmUmUmUmGmGmCdCmG*dTmGdCdGdGdTmGmCdCmUdCdCmGmUmCmAmCmG[invdT]; aptamer) [ARC1530]
Target: full length human vWF (SEQ ID NO 7)
Class assignment: false
//
Substance: mCmCmGmGmCdCmG-s-TmGdCdGdGTmGmCdCmUdCdCmGmUmCmAmCmUmUmUmGmUdGdCdAmGmUmGmCmCmGmG-3T (mCmCmGmGmCdCmG*dTmGdCdGdGdTmGmCdCmUdCdCmGmUmCmAmCmUmUmUmGmUdGdCdAmGmUmGmCmCmGmG[invdT]; aptamer) [ARC1535]
Target: full length human vWF (SEQ ID NO 7)
Class assignment: true
//
Substance: mCmGmUdGdCdAmGmUmGmCmCmUmUmCmGmGmCdCmG-s-TmGdCdGdGTmGmCdCmUdCdCmGmUmCmAmCmG-3T (mCmGmUdGdCdAmGmUmGmCmCmUmUmCmGmGmCdCmG*dTmGdCdGdGdTmGmCdCmUdCdCmGmUmCmAmCmG[invdT]; aptamer) [ARC1529]
Target: full length human vWF (SEQ ID NO 7)
Class assignment: false

Decide: is the reported value of % binding @ 100 nM vWF for mCmGmGmCdCmG-s-TmGdCdGdGTmGmCdCmUdCdCmGmUmCmAmCmUmUmUmGmUdGdCdAmGmUmGmCmCmG-3T (mCmGmGmCdCmG*dTmGdCdGdGdTmGmCdCmUdCdCmGmUmCmAmCmUmUmUmGmUdGdCdAmGmUmGmCmCmG[invdT]; aptamer) [ARC1534] equal to or greater than 30%?
false

Decide: is the reported value of % binding @ 100 nM vWF for dGdGdCdGTdGdCdAdGTdGdCdCTTdCdGdGdCdCdG-s-TdGdCdGdGTdGdCdCTdCdCdGTdCdAdCdGdCdC-3T (dGdGdCdGdTdGdCdAdGdTdGdCdCdTdTdCdGdGdCdCdG*dTdGdCdGdGdTdGdCdCdTdCdCdGdTdCdAdCdGdCdC[invdT]) [ARC1759] equal to or greater than 30%?
true

Decide: is the reported value of % binding @ 100 nM vWF for mGmCmGmUdGdCdAmGmUmGmCmCmUmUmCmGmGmCdCmG-s-TmGdCdGdGTmGmCdCmUdCdCmGmUmCmAmCmGmC-3T (mGmCmGmUdGdCdAmGmUmGmCmCmUmUmCmGmGmCdCmG*dTmGdCdGdGdTmGmCdCmUdCdCmGmUmCmAmCmGmC[invdT]) [ARC1524] equal to or greater than 30%?
false

Decide: is the reported value of % binding @ 100 nM vWF for mGmCmGmUdGdCdAmGmUmGmCmCmUmUmCmGmGmCdCmG-s-TmGdCdGdGTmGmCdCmUdCdCmGmUdCmAmCmGmC-3T (GCGUGCAGUGCCUUCGGCCGTGCGGTGCCUCCGUCACGC; sugars from the 5' end mmmmdddmmmmmmmmmmmdmdmddddmmdmddmmdmmmm, [invdT] at 3' end, backbone not given here) [ARC1368] equal to or greater than 30%?
true
